Test: Cytotoxicity against African green monkey Vero cells assessed as cell viability at 500 ug/ml by MTT assay
Type: cell-based
Settings: chlorocebus sabaeus, read-out: Activity
MEASURED_ENDPOINT: viability at 500 ug/ml

COMPOUND | MEASURED_ENDPOINT | DATA_VALUE
O=C1CSC(c2ccc(F)cc2)N1CCN1CCOCC1 (configuration not stated) | viability at 500 ug/ml | 91%
O=C1CSC(c2ccccc2[N+](=O)[O-])N1CCN1CCOCC1 (configuration not stated) | viability at 500 ug/ml | 91%
O=C1CSC(c2ccc(O)cc2)N1CCN1CCOCC1 (configuration not stated) | viability at 500 ug/ml | 79%
O=C1CSC(c2ccc(Cl)cc2)N1CCN1CCOCC1 (configuration not stated) | viability at 500 ug/ml | 76%
Cc1ccc(C2SCC(=O)N2CCN2CCOCC2)cc1 (configuration not stated) | viability at 500 ug/ml | 76%
O=C1CSC(c2cccc([N+](=O)[O-])c2)N1CCN1CCOCC1 (configuration not stated) | viability at 500 ug/ml | 92%
COc1ccc(C2SCC(=O)N2CCN2CCOCC2)cc1 (configuration not stated) | viability at 500 ug/ml | 90%

====

Experiment: Cytotoxicity against African green monkey Vero cells assessed as cell viability at 250 ug/ml by MTT assay
Assay type: cell-based
Details: chlorocebus sabaeus, read-out: Activity
MEASURED_ENDPOINT: viability at 250 ug/ml (%)

COMPOUND | MEASURED_ENDPOINT | DATA_VALUE
O=C1CSC(c2ccccc2[N+](=O)[O-])N1CCN1CCOCC1 (configuration not stated) | viability at 250 ug/ml | 98
Cc1ccc(C2SCC(=O)N2CCN2CCOCC2)cc1 (configuration not stated) | viability at 250 ug/ml | 80
O=C1CSC(c2ccc(Cl)cc2)N1CCN1CCOCC1 (configuration not stated) | viability at 250 ug/ml | 87
O=C1CSC(c2ccc(O)cc2)N1CCN1CCOCC1 (configuration not stated) | viability at 250 ug/ml | 83
COc1ccc(C2SCC(=O)N2CCN2CCOCC2)cc1 (configuration not stated) | viability at 250 ug/ml | 100
O=C1CSC(c2cccc([N+](=O)[O-])c2)N1CCN1CCOCC1 (configuration not stated) | viability at 250 ug/ml | 100
O=C1CSC(c2ccc(F)cc2)N1CCN1CCOCC1 (configuration not stated) | viability at 250 ug/ml | 100

====

Below, each entry is listed with its recorded inhibition in vivo at 166 mg/kg.
Tested on: Mus musculus
Experiment: Antiinflammatory activity in BALB/c mouse assessed as inhibition of croton oil-induced ear edema at 166 mg/kg administered topically on ear measured at 6 hrs
Format: functional
Conditions: topical
MEASURED_ENDPOINT: inhibition in vivo at 166 mg/kg (%)

COMPOUND | DATA_VALUE
O=C1CSC(c2ccc(Cl)cc2)N1CCN1CCOCC1 (configuration not stated) | 44
O=C1CSC(c2ccccc2[N+](=O)[O-])N1CCN1CCOCC1 (configuration not stated) | 50
COc1ccc(C2SCC(=O)N2CCN2CCOCC2)cc1 (configuration not stated) | 54
O=C1CSC(c2ccc(F)cc2)N1CCN1CCOCC1 (configuration not stated) | 39
O=C1CSC(c2ccc(O)cc2)N1CCN1CCOCC1 (configuration not stated) | 45
O=C1CSC(c2cccc([N+](=O)[O-])c2)N1CCN1CCOCC1 (configuration not stated) | 48
Cc1ccc(C2SCC(=O)N2CCN2CCOCC2)cc1 (configuration not stated) | 42
